Readings of Dose necessary for O.I. value to achieve 90% for the listed compounds
System: rabbit
Experiment: Orthostatic hypotensive effect, tilting of unanesthetized rabbit, orthostatic index (O.I.)
Type: in vivo
Settings: iv, tilted 90°, without anesthetization
Description: Orthostatic hypotensive effect The orthostatic hypotensive effect was examined by the following method which is in accordance with the method of Journal of Pharmacological Methods, vol. 5, p. 53 (1981). A rabbit was fixed at the dorsal position without anesthetization on an orthostatic hypotension measurement apparatus. Polyethylene catheters were inserted in right femoral artery and right femoral vein, and the catheter inserted in the artery was connected to a pressure transducer. […]
Where a name gives a salt, the structure may show the parent alone.

COc1c(C)c(C)c(O)c(C)c1CN(C)CCOc1cc(C)c(O)cc1C(C)C: 56.4 μg/kg, iv
COc1c(C)c(C)c(OC)c(CN(C)CCOc2cc(C)c(O)cc2C(C)C)c1C: 40.3 μg/kg, iv
COc1cc2nc(N3CCN(C(=O)c4ccco4)CC3)nc(N)c2cc1OC [prazosin hydrochloride, reference compound]: 5.6 μg/kg, iv
COc1c(C)c(C)c(O)c(C)c1CNCCOc1cc(C)c(O)cc1C(C)C: 32.8 μg/kg, iv

Shift focus to the following entry.
Given the compound CCOc1c(C)c(C)c(O)c(C)c1CN(C)CCOc1cc(C)c(O)cc1C(C)C , write its reported Dose necessary for O.I. value to achieve 90%.
61.3 μg/kg, iv
